TARGET_OR_SYSTEM: thrombin receptor (Homo sapiens)
Construct: washed human platelets are prepared from blood drawn from healthy volunteers; endogenous in cells; host or cells: washed human platelets from healthy volunteers
Sequence (P25116 22-425): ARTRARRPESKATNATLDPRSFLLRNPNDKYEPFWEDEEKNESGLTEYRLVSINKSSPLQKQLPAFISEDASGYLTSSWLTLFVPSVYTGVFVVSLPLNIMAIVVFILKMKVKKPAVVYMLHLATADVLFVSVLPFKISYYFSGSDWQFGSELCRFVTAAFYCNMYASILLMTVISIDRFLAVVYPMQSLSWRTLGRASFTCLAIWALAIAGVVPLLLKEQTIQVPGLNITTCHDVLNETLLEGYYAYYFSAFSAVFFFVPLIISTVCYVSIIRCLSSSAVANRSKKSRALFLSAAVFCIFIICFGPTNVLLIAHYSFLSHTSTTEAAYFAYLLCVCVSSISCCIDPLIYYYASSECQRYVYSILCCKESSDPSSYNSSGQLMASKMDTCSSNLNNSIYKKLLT
ASSAY_INFO: Platelet aggregation assay for thrombin receptor antagonist activity (washed human platelets stimulated with α-thrombin)
Format: cell-based
COND: washed human platelets, thrombin-mediated aggregation; read-out: IC50 (concentration at which 50% inhibition of platelet aggregation is achieved)
*1 amine or outer side, *2 acyl side, *3 side chain or, on linkers, in order; H or OH if unused. Where a SMILES comes first, the peptide text is derived from it. [ ]: non-standard residue; d: D form. The star is where a group is joined. X1 = CN(Cc1cccc(Oc2ccccc2)c1)[C@@H](Cc1ccccc1)C(=O)*; X24 = CC(C)CCN([C@@H](Cc1ccccc1)C(=O)[*:2])[*:1]; X22 = CCCCCN([C@@H](CCc1ccccc1)C(=O)[*:2])[*:1]; X17 = CSCCCN([C@@H](Cc1ccccc1)C(=O)[*:2])[*:1]; X15 = CCCCN([C@@H](Cc1ccccc1)C(=O)[*:2])[*:1]; X9 = CN(Cc1ccccc1)[C@@H](Cc1ccccc1)C(=O)*; X11 = O=C([C@@H]1Cc2ccccc2CN1CC1CCCCC1)*; Butanoyl(2-OPh) = CCC(Oc1ccccc1)C(=O)*; X7 = CCCCCCC(Oc1ccc2ccccc2c1)C(=O)*; X4 = CCCCCN1Cc2ccccc2C[C@H]1C(=O)*; NMeR = CN[C@@H](CCCNC(=N)N)C(=O)O; Quinaldoyl = O=C(c1ccc2ccccc2n1)*; hArg = N=C(N)NCCCC[C@H](N)C(=O)O; Cha = N[C@@H](CC1CCCCC1)C(=O)O; X2 = O=C(Cc1c[nH]c2ccccc12)*; Orn = NCCC[C@H](N)C(=O)O
ASSAY_METRIC: pIC50
In textbook form, pIC50 equals minus log to base ten of the concentration in mol/L.

Looking for the measured pIC50 of CCCCN[C@@H](Cc1ccccc1)C(=O)N[C@@H](CC1CCCCC1)C(=O)N[C@@H](CC1CCCCC1)C(=O)N[C@@H](CCCNC(=N)N)C(=O)N[C@@H](CCCCN)C(=O)N1CCC[C@H]1C(=O)N[C@@H](CC(N)=O)C(=O)N[C@@H](CC(=O)O)C(=O)N[C@@H](CCCCN)C(N)=O [Compound 4] (H-[X15][Cha][Cha]RKPNDK-NH2) , can you help?
5.30

Subsequent entry: CCC(Oc1ccccc1)C(=O)N[C@@H](CC1CCCCC1)C(=O)N[C@@H](CC1CCCCC1)C(=O)N[C@@H](CCCN)C(=O)N[C@@H](CCCCN)C(N)=O (stereo partly shown) [Compound 50] ({Butanoyl(2-OPh)}-[Cha][Cha][Orn]K-NH2)
4.00

Please give the result for CCCCCN[C@@H](CCc1ccccc1)C(=O)N[C@@H](CC1CCCCC1)C(=O)N[C@@H](CC1CCCCC1)C(=O)N[C@@H](CCCNC(=N)N)C(=O)N[C@@H](CCCCN)C(N)=O [Compound 9] (H-[X22][Cha][Cha]RK-NH2) too.
4.82

Please answer likewise for CCCCCCC(Oc1ccc2ccccc2c1)C(=O)N[C@@H](CC1CCCCC1)C(=O)N[C@@H](CC1CCCCC1)C(=O)N[C@@H](CCCNC(=N)N)C(=O)N[C@@H](CCCCN)C(N)=O (stereo partly shown) [Compound 23] (X7-[Cha][Cha]RK-NH2)
5.30

Repeat for the following compound: N=C(N)NCCC[C@H](NC(=O)[C@H](CC1CCCCC1)NC(=O)[C@H](CC1CCCCC1)NC(=O)[C@@H]1Cc2ccccc2CN1CC1CCCCC1)C(=O)N[C@@H](CCCCN)C(N)=O [Compound 12] (X11-[Cha][Cha]RK-NH2)
4.70

Now try CCC(Oc1ccccc1)C(=O)N[C@@H](CC1CCCCC1)C(=O)N[C@@H](CC1CCCCC1)C(=O)N(C)[C@@H](CCCNC(=N)N)C(=O)N[C@@H](CCCNC(=N)N)C(N)=O (stereo partly shown) [Compound 54] ({Butanoyl(2-OPh)}-[Cha][Cha][NMeR]R-NH2) .
6.30

Similarly, CCC(Oc1ccccc1)C(=O)N[C@@H](CC1CCCCC1)C(=O)N[C@@H](CC1CCCCC1)C(=O)N[C@@H](CCCNC(=N)N)C(=O)N[C@H](CCCCN)C(N)=O (stereo partly shown) [Compound 52] ({Butanoyl(2-OPh)}-[Cha][Cha]R[dK]-NH2) ?
4.82

Repeat with CN(Cc1ccccc1)[C@@H](Cc1ccccc1)C(=O)N[C@@H](CC1CCCCC1)C(=O)N[C@@H](CC1CCCCC1)C(=O)N[C@@H](CCCNC(=N)N)C(=O)N[C@@H](CCCCN)C(N)=O [Compound 19] (X9-[Cha][Cha]RK-NH2)
4.52

// same read-out, input: CN(Cc1cccc(Oc2ccccc2)c1)[C@@H](Cc1ccccc1)C(=O)N[C@@H](CC1CCCCC1)C(=O)N[C@@H](CC1CCCCC1)C(=O)N[C@@H](CCCNC(=N)N)C(=O)N[C@@H](CCCCN)C(N)=O [Compound 17] (X1-[Cha][Cha]RK-NH2)
4.82

Param item: CCCCCN1Cc2ccccc2C[C@H]1C(=O)N[C@@H](CC1CCCCC1)C(=O)N[C@@H](CC1CCCCC1)C(=O)N[C@@H](CCCNC(=N)N)C(=O)N[C@@H](CCCCN)C(N)=O [Compound 11, (N-n-pentyl-Tic)-Cha-Cha-Arg-Lys-NH2] (X4-[Cha][Cha]RK-NH2)
5.60

What about this compound? N=C(N)NCCC[C@H](NC(=O)[C@H](CC1CCCCC1)NC(=O)[C@H](CC1CCCCC1)NC(=O)c1ccc2ccccc2n1)C(=O)N[C@@H](CCCCN)C(N)=O [Compound 28] (Quinaldoyl-[Cha][Cha]RK-NH2)
4.52

Lookup CSCCCN[C@@H](Cc1ccccc1)C(=O)N[C@@H](CC1CCCCC1)C(=O)N[C@@H](CC1CCCCC1)C(=O)N[C@@H](CCCNC(=N)N)C(=O)N[C@@H](CCCCN)C(=O)N1CCC[C@H]1C(=O)N[C@@H](CC(N)=O)C(=O)N[C@@H](CC(=O)O)C(=O)N[C@@H](CCCCN)C(N)=O [Compound 2] (H-[X17][Cha][Cha]RKPNDK-NH2)
5.00

# repeat for N=C(N)NCCC[C@H](NC(=O)[C@H](CC1CCCCC1)NC(=O)[C@H](CC1CCCCC1)NC(=O)Cc1c[nH]c2ccccc12)C(=O)N[C@@H](CCCCN)C(N)=O [Compound 30] (X2-[Cha][Cha]RK-NH2)
4.70

Would you mind doing CCC(Oc1ccccc1)C(=O)N[C@@H](Cc1ccccc1)C(=O)N[C@@H](CC1CCCCC1)C(=O)N[C@@H](CCCNC(=N)N)C(=O)N[C@@H](CCCCN)C(N)=O (stereo partly shown) [Compound 46] ({Butanoyl(2-OPh)}-F[Cha]RK-NH2) as well?
4.82

Now consider CCC(Oc1ccccc1)C(=O)N[C@@H](CC1CCCCC1)C(=O)N[C@@H](CC1CCCCC1)C(=O)N[C@@H](CCCCNC(=N)N)C(=O)N[C@@H](CCCCN)C(N)=O (stereo partly shown) [Compound 47] ({Butanoyl(2-OPh)}-[Cha][Cha][hArg]K-NH2) and answer again.
5.60

Another compound to look at: CC(C)CCN[C@@H](Cc1ccccc1)C(=O)N[C@@H](CC1CCCCC1)C(=O)N[C@@H](CC1CCCCC1)C(=O)N[C@@H](CCCNC(=N)N)C(=O)N[C@@H](CCCCN)C(=O)N1CCC[C@H]1C(=O)N[C@@H](CC(N)=O)C(=O)N[C@@H](CC(=O)O)C(=O)N[C@@H](CCCCN)C(N)=O [Compound 1] (H-[X24][Cha][Cha]RKPNDK-NH2)
5.30
